biological target: Tyrosine-protein kinase ABL1 (Homo sapiens, UniProt P00519, Q252H); assay: Binding affinity to human non-phosphorylated ABL1 Q252H mutant (S229 to K512 residues) expressed in mammalian expression system after 60 mins by Kinomescan method
observation type: Kd

{"compound smiles": "CN1CCC(Nc2ccc(C(=O)Nc3cc(-c4cc(C#N)cs4)n[nH]3)cc2)CC1", "observation type": "Kd", "assay value": "350 nM"}

###

Reported half-life at 1 µM by item:
assay: Half life in rat liver microsomes at 1 uM after 5 to 60 mins in presence of NADPH by LC-MS/MS analysis; assay type: ADME, Microsome
observation type: half-life at 1 µM (min)

{"compound smiles": "CN1CCC(Nc2ccc(C(=O)Nc3cc(-c4cc(C#N)cs4)n[nH]3)cc2)CC1", "units": "min", "assay value": 8.1}
{"compound smiles": "Cc1ncc2n1-c1ccc(Cl)cc1C(c1ccccc1F)=NC2", "units": "min", "assay value": 11.2}
